# credit: paper PMC12063173

test: Plasma pharmacokinetics of phenolic metabolites after oral capsule of (poly)phenol-rich Mediterranean extract mixture; settings: male, Sprague-Dawley, rat, po, 22 mg extract blend per capsule, one capsule per animal
// reported half-life per item
The answer is to be given in h; state only the numeric part.

Worked cases, half-life given:
O=S(=O)(O)Oc1cc(O)cc(C=Cc2ccc(O)cc2)c1 [resveratrol 3-O-sulfate]    3.9
O=C(O)CCc1ccc(O)c(O)c1 [dihydrocaffeic acid]    61
O=C(O)CCCCc1cccc(O)c1 [5-(3-hydroxyphenyl)-valeric acid]    29
O=C(O)CCc1cccc(O)c1 [3-(3-hydroxyphenyl) propionic acid]    6.9
O=C(O)CCc1ccccc1O [3-(2-hydroxyphenyl) propionic acid]    8.26

Data request: Param item = O=C(O)c1ccc(O)cc1O [2,4-dihydroxybenzoic acid] ; retrieve measured half-life.
Data returned: 14

---

assay: Nonperfused brain (NPB) kinetics of phenolic metabolites after oral capsule; type: in vivo, Sprague–Dawley rats; conditions: nonperfused brain, oral capsule, 0-24 h, n = 3 per time point
readout_kind: Tmax NPB
Please don't drop the unit; write it after the number.

Solved cases (2 shown):
O=C(O)C=Cc1ccc(O)c(OS(=O)(=O)O)c1 [caffeic acid 3-O-sulfate]    3.00 h
O=C(O)[C@H]1O[C@@H](Oc2cc(O)cc(CCc3ccc(O)cc3)c2)[C@H](O)[C@@H](O)[C@@H]1O [dihydroresveratrol 3-O-glucuronide]    6.7 ± 1.2 h

Data request: Recorded Tmax NPB of O=S(=O)(O)Oc1ccc(CCO)cc1O [hydroxytyrosol 4′-O-sulfate] , please.
Data returned: 2.3 ± 1.2 h

Data request: Can you look up the measured Tmax NPB of O=S(=O)(O)Oc1ccc(CCO)cc1 [tyrosol 4-O-sulfate] for me?
Data returned: 2.0 ± 1.4 h

Data request: Which Tmax NPB value is on record for COc1cc(/C=C/C(=O)O)ccc1OS(=O)(=O)O [ferulic acid 4-O-sulfate] ?
Data returned: 1.0 ± 0.0 h

Data request: Using the record for O=C(O)C=Cc1ccc(OS(=O)(=O)O)cc1 [p-coumaric acid 4-O-sulfate] , report its Tmax NPB.
Data returned: 3.0 ± 0.0 h

Data request: Item under review: O=S(=O)(O)Oc1cc(CCO)ccc1O [hydroxytyrosol 3-O-sulfate] . Reported Tmax NPB?
Data returned: 3.0 ± 0.0 h

---

Assay: Perfused brain (PB) kinetics of phenolic metabolites after oral capsule
Format: in vivo, Sprague–Dawley rats
Design: concentration or dose not given beside the values
Conditions: perfused brain, oral capsule, 0-24 h, n = 3 per time point
From the text: Statistical analyses were applied depending on the experimental context.
Classes by AUC0-t PB: Low: < 2 pmol·h/g; Mid: ≥ 2 pmol·h/g and < 10 pmol·h/g; High: ≥ 10 pmol·h/g

Answered cases to consult:
O=C(O)CCc1ccc(O)c(O)c1 [dihydrocaffeic acid]    High
O=C(O)CCc1ccccc1O [3-(2-hydroxyphenyl) propionic acid]    Low
O=S(=O)(O)Oc1ccc(CCO)cc1O [hydroxytyrosol 4′-O-sulfate]    High
COc1cc(/C=C/C(=O)O)ccc1OS(=O)(=O)O [ferulic acid 4-O-sulfate]    Mid
O=S(=O)(O)Oc1ccc(CCO)cc1 [tyrosol 4-O-sulfate]    Low
O=C(O)CCCCc1cccc(O)c1 [5-(3-hydroxyphenyl)-valeric acid]    High

Data request: Record O=C(O)C=Cc1ccc(O)c(OS(=O)(=O)O)c1 [caffeic acid 3-O-sulfate] — which class?
Data returned: Mid

Data request: Please report the category associated with "O=c1oc2c(O)c(O)cc3c(=O)oc4c(O)c(O)cc1c4c23" , nothing else.
Data returned: Low

Data request: Which class does O=C(O)[C@H]1O[C@@H](Oc2cc(O)cc(CCc3ccc(O)cc3)c2)[C@H](O)[C@@H](O)[C@@H]1O [dihydroresveratrol 3-O-glucuronide] fall in?
Data returned: Low

---

Form field: MRT0-t plasma (one value per entry).
experiment: Plasma pharmacokinetics of phenolic metabolites after oral capsule of (poly)phenol-rich Mediterranean extract mixture; settings: oral capsule, 0-24 h, n = 6 per time point
Answer shape: numeric part, then the unit.

O=S(=O)(O)Oc1cc(CCO)ccc1O [hydroxytyrosol 3-O-sulfate]    4.3 ± 1.0 h
O=C(O)C=Cc1ccc(OS(=O)(=O)O)cc1 [p-coumaric acid 4-O-sulfate]    45 ± 37 h
O=C1CCC(Cc2ccc(O)c(OS(=O)(=O)O)c2)O1 (centres unmarked)    31 ± 44 h
COc1ccc(C2CC(=O)c3c(O)cc(O)cc3O2)cc1O[C@@H]1O[C@H](C(=O)O)[C@@H](O)[C@H](O)[C@H]1O (some centres unmarked) [hesperetin 3′-O-glucuronide]    23.48 h
O=C(O)[C@H]1O[C@@H](Oc2cc(O)cc(CCc3ccc(O)cc3)c2)[C@H](O)[C@@H](O)[C@@H]1O [dihydroresveratrol 3-O-glucuronide]    14 ± 5.8 h
COc1cc(/C=C/C(=O)O)ccc1OS(=O)(=O)O [ferulic acid 4-O-sulfate]    14 ± 5.1 h
O=S(=O)(O)Oc1ccc(CCO)cc1O [hydroxytyrosol 4′-O-sulfate]    3.4 ± 0.5 h

Consider the additional compound presented here.
Data request: Which MRT0-t plasma is reported for this compound? O=C(O)C=Cc1ccc(O)c(OS(=O)(=O)O)c1 [caffeic acid 3-O-sulfate]
Data returned: 13 ± 8.8 h

---

assay: Nonperfused brain (NPB) kinetics of phenolic metabolites after oral capsule; format: in vivo, Sprague–Dawley rats; conditions: nonperfused brain, oral capsule, 0-24 h, n = 3 per time point
readout_kind: T1/2 NPB

O=S(=O)(O)Oc1ccc(CCO)cc1O [hydroxytyrosol 4′-O-sulfate]    18 ± 14 h
O=C(O)[C@H]1O[C@@H](Oc2cc(O)cc(CCc3ccc(O)cc3)c2)[C@H](O)[C@@H](O)[C@@H]1O [dihydroresveratrol 3-O-glucuronide]    27 ± 1 h
O=S(=O)(O)Oc1cc(CCO)ccc1O [hydroxytyrosol 3-O-sulfate]    7.0 ± 0.7 h

Data request: Would you kindly share the measured T1/2 NPB for O=S(=O)(O)Oc1ccc(CCO)cc1 [tyrosol 4-O-sulfate] ?
Data returned: 4.5 ± 1.1 h

---

experiment: Plasma pharmacokinetics of phenolic metabolites after oral capsule of (poly)phenol-rich Mediterranean extract mixture; settings: male, Sprague-Dawley, rat, po, 22 mg extract blend per capsule, one capsule per animal
Friendly reminder: AUC(0-t) below 0.06 µM·h is rule met, at or above is rule not met.

Use these answered entries as a reference point.
O=C(O)CCc1ccc(O)c(O)c1 [dihydrocaffeic acid]    rule not met
O=C(O)CCc1ccccc1O [3-(2-hydroxyphenyl) propionic acid]    rule not met
O=c1oc2c(O)c(O)cc3c(=O)oc4c(O)c(O)cc1c4c23 [ellagic acid]    rule met
O=C(O)CCc1cccc(O)c1 [3-(3-hydroxyphenyl) propionic acid]    rule not met
O=C(O)c1ccc(O)cc1O [2,4-dihydroxybenzoic acid]    rule not met

Data request: Threshold test, AUC(0-t) < 0.06 µM·h: O=S(=O)(O)Oc1cc(O)cc(C=Cc2ccc(O)cc2)c1 [resveratrol 3-O-sulfate]
Data returned: rule met

Data request: is_below(AUC(0-t), 0.06 µM·h) for O=C(O)CCCCc1cccc(O)c1 [5-(3-hydroxyphenyl)-valeric acid] ?
Data returned: rule met

---

Assay: Nonperfused brain (NPB) kinetics of phenolic metabolites after oral capsule
Format: in vivo, Sprague–Dawley rats
Details: male, Sprague-Dawley, rat, 22 mg extract blend per capsule, one capsule per animal; nonperfused brain, oral capsule, 0-24 h, n = 3 per time point; read-out: MRT0-t NPB
Description: Statistical analyses were applied depending on the experimental context.
Documented MRT last across a set of molecules
Numbers only here, please. The scale is h.

Here's what some known entries look like.
O=C(O)c1ccc(O)cc1O [2,4-dihydroxybenzoic acid]    7.9
O=C(O)CCCCc1cccc(O)c1 [5-(3-hydroxyphenyl)-valeric acid]    102
O=C(O)CCc1cccc(O)c1 [3-(3-hydroxyphenyl) propionic acid]    11

Let's switch to this molecule now.
Data request: Could you share which MRT last value was measured for "O=c1oc2c(O)c(O)cc3c(=O)oc4c(O)c(O)cc1c4c23" ?
Data returned: 56.9

---

assay: in vivo; settings: male, Sprague-Dawley, rat, po
readout_kind: MRT last (h)
The reply should be a number in h, with the unit left off.

Data request: Fill in: MRT last of O=S(=O)(O)Oc1ccc(C=Cc2cc(O)cc(O)c2)cc1 [resveratrol 4’-O-sulfate] is ___
Data returned: 10.7

---

assay: Nonperfused brain (NPB) kinetics of phenolic metabolites after oral capsule; format: in vivo, Sprague–Dawley rats; conditions: nonperfused brain, oral capsule, 0-24 h, n = 3 per time point
MET means recorded Cmax NPB is 0.9 pmol/g tissue or above; NOT MET means it is below 0.9 pmol/g tissue.

Known results for molecules:
O=S(=O)(O)Oc1ccc(CCO)cc1O [hydroxytyrosol 4′-O-sulfate]    MET
O=S(=O)(O)Oc1cc(O)cc(C=Cc2ccc(O)cc2)c1 [resveratrol 3-O-sulfate]    NOT MET
O=C(O)CCCCc1cccc(O)c1 [5-(3-hydroxyphenyl)-valeric acid]    MET
O=S(=O)(O)Oc1cc(CCO)ccc1O [hydroxytyrosol 3-O-sulfate]    MET

Data request: Please indicate if the recorded Cmax NPB for O=C(O)C=Cc1ccc(OS(=O)(=O)O)cc1 [p-coumaric acid 4-O-sulfate] meets or exceeds 0.9 pmol/g tissue.
Data returned: NOT MET

Data request: Could you please find out whether O=C(O)c1ccc(O)cc1O [2,4-dihydroxybenzoic acid] has Cmax NPB that meets 0.9 pmol/g tissue or exceeds it?
Data returned: MET

Data request: Given O=C(O)CCc1cccc(O)c1 [3-(3-hydroxyphenyl) propionic acid] , state whether its Cmax NPB is at least 0.9 pmol/g tissue.
Data returned: MET

Data request: Check this molecule for Cmax NPB at or above 0.9 pmol/g tissue: O=C(O)[C@H]1O[C@@H](Oc2cc(O)cc(CCc3ccc(O)cc3)c2)[C@H](O)[C@@H](O)[C@@H]1O [dihydroresveratrol 3-O-glucuronide]
Data returned: NOT MET
